- protocol-text: Thermodynamic solubility of compound in pH 7.4 phosphate buffer incubated for 24 hrs under shaking condition by UPLC analysis
- Assay type: physicochemical
- measurement-setup: read-out: Therm_solubility
measurement-type: solubility thermodynamic at 24 h (µM)

[1] O=c1cc(CC2CCCCO2)[nH]c2nc(Nc3c4c(cc5c3CCC5)CCC4)nn12 (centres undefined)
[2] S=c1cc(Cc2ccccn2)[nH]c2nc(Nc3c4c(cc5c3CCC5)CCC4)nn12
# input Among 1 and 2 , whose measured solubility thermodynamic at 24 h is the smaller figure? Let me know the label of the one you choose.
# output 1
(1: 24 µM, 2: 1500 µM)

[A] S=c1cc(CC2CCCCO2)[nH]c2nc(Nc3c4c(cc5c3CCC5)CCC4)nn12 (centres undefined)
[B] O=c1cc(Cc2ccccn2)[nH]c2nc(Nc3c4c(cc5c3CCC5)CCC4)nn12
# input Looking at recorded values for solubility thermodynamic at 24 h, does A or B come in lower? Lab note: record the label of whichever item you select.
# output B
(B: 2.4 µM, A: 730 µM)

====

- target-system: NACHT, LRR and PYD domains-containing protein 3 (Homo sapiens)
- Sequence (Q96P20 whole entry, the tested form may be a part): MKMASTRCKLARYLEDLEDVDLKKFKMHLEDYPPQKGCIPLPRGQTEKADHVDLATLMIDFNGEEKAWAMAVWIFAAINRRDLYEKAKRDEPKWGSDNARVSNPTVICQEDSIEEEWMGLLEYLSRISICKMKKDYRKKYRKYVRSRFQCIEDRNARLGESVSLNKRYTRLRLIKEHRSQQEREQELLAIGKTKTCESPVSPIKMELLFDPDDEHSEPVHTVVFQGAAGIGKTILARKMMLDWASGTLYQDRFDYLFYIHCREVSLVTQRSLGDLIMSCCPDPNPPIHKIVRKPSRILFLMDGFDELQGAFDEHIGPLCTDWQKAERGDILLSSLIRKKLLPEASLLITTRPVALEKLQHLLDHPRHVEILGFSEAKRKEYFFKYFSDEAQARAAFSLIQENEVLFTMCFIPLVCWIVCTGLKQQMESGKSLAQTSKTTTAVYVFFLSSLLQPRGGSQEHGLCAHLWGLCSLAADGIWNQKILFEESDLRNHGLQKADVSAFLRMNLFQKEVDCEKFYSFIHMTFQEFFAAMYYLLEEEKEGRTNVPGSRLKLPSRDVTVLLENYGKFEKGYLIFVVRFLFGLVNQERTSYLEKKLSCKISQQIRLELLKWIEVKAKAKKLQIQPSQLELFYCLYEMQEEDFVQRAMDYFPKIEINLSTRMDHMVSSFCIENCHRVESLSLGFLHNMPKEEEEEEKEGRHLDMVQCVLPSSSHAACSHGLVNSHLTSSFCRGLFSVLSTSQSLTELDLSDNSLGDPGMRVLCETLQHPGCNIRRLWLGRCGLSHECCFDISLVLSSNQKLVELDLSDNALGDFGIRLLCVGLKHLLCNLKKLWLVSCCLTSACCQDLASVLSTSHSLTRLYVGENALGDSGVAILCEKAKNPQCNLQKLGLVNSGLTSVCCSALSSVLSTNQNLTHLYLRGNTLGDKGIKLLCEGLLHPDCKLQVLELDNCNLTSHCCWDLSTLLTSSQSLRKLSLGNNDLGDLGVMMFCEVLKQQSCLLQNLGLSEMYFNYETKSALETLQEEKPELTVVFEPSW
- protocol-text: Inhibition of NLRP3 inflammasome in LPS-pretreated PBMC (unknown origin) assessed as reduction in IL-1beta release pretreated for 30 mins followed by ATP stimulated and measured after 1 hr by ELISA
- Assay type: cell-based
- measurement-setup: read-out: IC50
measurement-type: IC50 (µM)

Some solved entries appear below for comparison.
O=c1cc(CN2CCOCC2)[nH]c2nc(Nc3c4c(cc5c3CCC5)CCC4)nn12
7.8
N#Cc1ccc(Cc2cc(=O)n3nc(Nc4c5c(cc6c4CCC6)CCC5)nc3[nH]2)cc1
1.6
Cn1cnc(Cc2cc(=O)n3nc(Nc4c5c(cc6c4CCC6)CCC5)nc3[nH]2)c1
5.5
CN1CCCC(c2cc(=O)n3nc(Nc4c5c(cc6c4CCC6)CCC5)nc3[nH]2)C1 (stereo not given)
4.9
O=c1cc(CC2CCOC2)[nH]c2nc(Nc3c4c(cc5c3CCC5)CCC4)nn12 (stereo not given)
5

[a] Cn1cncc1Cc1cc(=O)n2nc(Nc3c4c(cc5c3CCC5)CCC4)nc2[nH]1
[b] O=c1cc(C2CCOCC2)[nH]c2nc(Nc3c4c(cc5c3CCC5)CCC4)nn12
[c] O=c1cc(CC2CCCCO2)[nH]c2nc(Nc3c4c(cc5c3CCC5)CCC4)nn12 (stereo not given)
[d] Cc1ccccc1Cc1cc(=O)n2nc(Nc3c4c(cc5c3CCC5)CCC4)nc2[nH]1
# input Which order do these items take when sorted by rising IC50? List them. # the answer lists labels in the order requested
# output c, d, b, a

[P] O=c1cc(Cc2ccccc2F)[nH]c2nc(Nc3c4c(cc5c3CCC5)CCC4)nn12
[Q] O=c1cc(CC2COCCN2)[nH]c2nc(Nc3c4c(cc5c3CCC5)CCC4)nn12 (stereo not given)
[R] N#Cc1cccc(Cc2cc(=O)n3nc(Nc4c5c(cc6c4CCC6)CCC5)nc3[nH]2)c1
[S] CCc1cc(=O)n2nc(Nc3c4c(cc5c3CCC5)CCC4)nc2[nH]1
# input Order the items by recorded IC50; the first position goes to the largest value. Note for the reader: the ranking is given by listing the labels in the order requested.
# output S, Q, P, R
